System: rat aorta
procedureSummary: Inhibitory effects with respect to contractions of the rat aorta induced by 80 mM KCl
Type: cell-based, WISTAR rats
protocolConditions: isolated rat aorta
IC50 values for the compounds below.
experimentalReadout: IC50 (nM)

compound="CCOC(=O)C1=C(C)NC(C)=C(C(=O)OCCN(C)Cc2ccc(F)cc2)C1c1cccc2c1OCO2 (stereo not shown) [Example 8]" experimentalreadout=IC50 measuredvalue=0.04
compound="COC(=O)C1=C(C)NC(C)=C(C(=O)OCCN(C)Cc2ccccn2)C1c1cccc2c1OCO2 (stereo not shown) [Example 4]" experimentalreadout=IC50 measuredvalue=81.1
compound="COC(=O)C1=C(C)NC(C)=C(C(=O)OCCN(C=O)Cc2ccccc2)C1c1cccc2c1OCO2 (stereo not shown) [Example 3]" experimentalreadout=IC50 measuredvalue=52.8
compound="CCOC(=O)C1=C(C)NC(C)=C(C(=O)OC)C1c1cccc2c1OCO2 (stereo not shown) [OXODIPINE, reference compound]" experimentalreadout=IC50 measuredvalue=3.1
